Ref: paper PMC7156458

# TESTED_TARGET: Aβ42 (Homo sapiens)
# Sequence (P05067 672-713): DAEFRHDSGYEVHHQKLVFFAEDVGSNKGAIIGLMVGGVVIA
# PROTOCOL_DESCRIPTION: Th-T (thioflavin-T) assay of Aβ42 aggregation
# Assay type: biochemical
# CONDITION_PARAMETERS: reading M125; compound at 20 (head suffix _20)
Outcome: true (1) for Th-T fluorescence, mean of three wells (Fig. 7a) of at least 2; false (0) for anything lower.

Sample answers from the record:
COMPOUND	CATEGORY_LABEL
C=C1CC[C@@H]2[C@](C)(CC[C@H]3O[C@H](C=C(C)C)C[C@@]23C)[C@@H]1Cc1c(OC)oc(CO)c(C(=O)OC)c1=O	false (0)
C=C1CC[C@@H]2[C@](C)(CC[C@H]3O[C@H](C=C(C)C)C[C@@]23C)[C@@H]1Cc1c(OC)oc(CO)c(C)c1=O	true (1)
C=C1CCC2C(C)(CCC=C(C)C)C(O)CCC2(C)C1Cc1c(OC)oc(CO)c(C)c1=O (centres unmarked)	true (1)
C=C1CCC2C(C)(CCC=C(C)C)C(O)CCC2(C)C1Cc1c(OC)oc(CO)c(C(=O)OC)c1=O (centres unmarked)	false (0)

Turning to the following compound.
query: Determine whether measured Th-T fluorescence, mean of three wells (Fig. 7a) meets or exceeds 2 for C=C1CCC2C(C)(CCC=C(C)C)C(O)CCC2(C)C1Cc1c(OC)oc(C)c(C(=O)OC)c1=O (centres unmarked)
result: false (0)
